This listing pairs compounds with measured inhibition.
- Procedure Details: IEC-6 cell viability reduction – luminescence, cytotoxicity control for KLF5 inhibitor project, primary screen (AID 1825);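 further: 0% = plate median of test compound wells and 100% = cytotoxic reference compound wells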
- Experimental Setup: IEC-6 cytotoxicity, at 5 µM, stronger effect = higher value
In all, about 290,000 compounds went through this assay and about 2,300 (0.79%) were called active. This is one part of a sample in which actives are shown more often than they occur.
Value expressed in %; do not type the unit.

Known results for compounds:
1. Cc1cc(C(=O)CCl)c(C)n1CC1COc2ccccc2O1 (stereo not drawn) = -0.4
2. CCCc1nc(NCc2ccc3c(c2)OCO3)c2nnn(Cc3ccccc3Cl)c2n1 = 0.3
3. COc1cc(OC)nc(S(C)(=O)=O)n1 = 6.6

Here's the next entry for you.
May I ask what inhibition has been recorded for `CCC(CC)c1nnc(NC(=O)C2CCN(C(=O)c3ccco3)CC2)s1` ?
-0.9
